Source: ChEMBL document CHEMBL1148514

biological target: Proteasome Macropain subunit (Saccharomyces cerevisiae S288c, UniProt P22141); experiment: Inhibition of trypsin like activity of yeast 20S proteasome
Sequence (P22141 whole entry): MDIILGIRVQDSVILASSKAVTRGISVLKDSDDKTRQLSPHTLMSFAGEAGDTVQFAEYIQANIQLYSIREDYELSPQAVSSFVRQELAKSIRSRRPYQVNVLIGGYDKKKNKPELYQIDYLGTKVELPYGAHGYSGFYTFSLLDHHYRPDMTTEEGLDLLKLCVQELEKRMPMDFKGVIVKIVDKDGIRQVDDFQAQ
Residues, ends and D or L forms follow the SMILES beside them.
Property: Ki (µM)

Compound | Assay target | Comparison symbol | Val
CCCCCCCCCCCCCCCC(=O)N[C@@H](Cc1ccc(O)cc1)C(=O)N[C@@H](CCCCN)C(=O)N[C@@H](Cc1ccccc1)C(=O)O (HELM PEPTIDE1{[CCCCCCCCCCCCCCCC(=O)[*:2]].Y.K.F}$$$$V2.0) | Proteasome Macropain subunit (Saccharomyces cerevisiae S288c, UniProt P22141) | > | 80
CCCCCC(=O)N[C@H](C(=O)N[C@H](C(=O)N[C@H](C(=O)N[C@@H](Cc1ccc(O)cc1)C(=O)N[C@@H](CCCCN)C(=O)N[C@@H](Cc1ccccc1)C(=O)O)[C@@H](C)O)C(C)C)[C@@H](C)O (HELM PEPTIDE1{[CCCCCC(=O)[*:2]].T.V.T.Y.K.F}$$$$V2.0) | Proteasome Macropain subunit (Saccharomyces cerevisiae S288c, UniProt P22141) | = | 315
CCCCCCCCCCCCCCCC(=O)N[C@@H](Cc1ccc(O)cc1)C(=O)N[C@@H](CCC(=O)O)C(=O)N[C@@H](CC(C)C)C(=O)O (HELM PEPTIDE1{[CCCCCCCCCCCCCCCC(=O)[*:2]].Y.E.L}$$$$V2.0) | Proteasome Macropain subunit (Saccharomyces cerevisiae S288c, UniProt P22141) | > | 80
CCCCCCCCCCCCCC(=O)N[C@H](C(=O)N[C@H](C(=O)N[C@H](C(=O)N[C@@H](Cc1ccc(O)cc1)C(=O)N[C@@H](CCCCN)C(=O)N[C@@H](Cc1ccccc1)C(=O)O)[C@@H](C)O)C(C)C)[C@@H](C)O (HELM PEPTIDE1{[CCCCCCCCCCCCCC(=O)[*:2]].T.V.T.Y.K.F}$$$$V2.0) | Proteasome Macropain subunit (Saccharomyces cerevisiae S288c, UniProt P22141) | = | 80
